Molecular target: TLR7 (Homo sapiens)
Sequence (Q9NYK1 27-1049): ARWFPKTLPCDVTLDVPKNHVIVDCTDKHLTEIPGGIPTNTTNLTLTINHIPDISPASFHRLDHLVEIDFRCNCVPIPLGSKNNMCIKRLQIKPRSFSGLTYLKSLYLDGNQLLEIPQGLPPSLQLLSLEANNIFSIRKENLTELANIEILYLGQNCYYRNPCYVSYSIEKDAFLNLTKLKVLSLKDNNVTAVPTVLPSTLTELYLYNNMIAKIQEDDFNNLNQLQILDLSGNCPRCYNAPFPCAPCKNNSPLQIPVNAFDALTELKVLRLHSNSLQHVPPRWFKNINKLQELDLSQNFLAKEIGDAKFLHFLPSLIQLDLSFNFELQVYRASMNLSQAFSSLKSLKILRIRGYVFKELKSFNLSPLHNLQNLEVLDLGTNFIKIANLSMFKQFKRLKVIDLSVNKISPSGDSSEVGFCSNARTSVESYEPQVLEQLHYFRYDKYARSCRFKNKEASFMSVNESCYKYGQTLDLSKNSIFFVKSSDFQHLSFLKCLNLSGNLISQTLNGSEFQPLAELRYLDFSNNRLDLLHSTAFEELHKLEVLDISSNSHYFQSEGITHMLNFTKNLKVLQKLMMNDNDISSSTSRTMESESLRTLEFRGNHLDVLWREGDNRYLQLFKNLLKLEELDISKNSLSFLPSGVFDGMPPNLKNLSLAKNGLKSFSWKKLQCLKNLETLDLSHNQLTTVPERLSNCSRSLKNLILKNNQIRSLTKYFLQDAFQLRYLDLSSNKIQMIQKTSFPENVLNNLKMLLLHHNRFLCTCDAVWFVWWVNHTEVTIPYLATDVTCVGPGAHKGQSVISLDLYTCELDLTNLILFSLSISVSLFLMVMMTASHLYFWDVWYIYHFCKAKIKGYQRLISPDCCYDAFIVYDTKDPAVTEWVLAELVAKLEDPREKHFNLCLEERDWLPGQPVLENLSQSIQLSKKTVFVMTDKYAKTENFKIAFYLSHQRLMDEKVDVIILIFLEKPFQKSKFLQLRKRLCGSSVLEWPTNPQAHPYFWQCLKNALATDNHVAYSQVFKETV
Assay: HEK Cell Assay (TLR7/NFKb HEK reporter cells, Steady-Glo)
Conditions: compound 30 min, then R*48 agonist 5 hours, Steady-Glo readout, read-out: Potency
pIC50: −log10 of the molar value.
quantityName: pIC50

For orientation, consider the following solved cases.
molecule=C[C@@H]1C[C@H](c2ccc(C#N)c3ncccc23)CN(C(=N)N)C1 quantityname=pIC50 result="4.70 to 6.00"
molecule=C[C@@H]1C[C@H](NC(=O)[C@@H](O)C(C)(C)C)C[C@H](c2ccc(C(F)(F)F)c3nccnc23)C1 quantityname=pIC50 result="4.70 to 6.00"
molecule="C[C@@H]1C[C@H](c2ccc(C#N)c3ncccc23)CN(C(=O)CN2CCN(C)CC2)C1 [Compound 97]" quantityname=pIC50 result="> 6.00"
molecule="COCCN[C@@H]1C[C@H](C)C[C@H](c2ccc(F)c3nccnc23)C1 (racemic)" quantityname=pIC50 result="4.70 to 6.00"

Turning to the following molecule.
Recorded result, C[C@@H]1C[C@@H](c2ccc(C(F)(F)F)c3ncccc23)CN(C)C1 (relative stereo) , pIC50: < 4.70
